- ASSAY_PROCEDURE: Photodegradation under light irradiation
- Assay type: physicochemical
- CONDITION_LABEL: DMF
QUANTITY_NAME: Photodegradation quantum yield Φd (×10^−4)

C#CCOCc1cc(C)cc(COCC#C)c1Oc1ccc2c(c1)C1=NC2=Nc2c3cc(Oc4c(COCC#C)cc(C)cc4COCC#C)ccc3c3[n]2[Zn][n]2c(c4ccc(Oc5c(COCC#C)cc(C)cc5COCC#C)cc4c2=NC2=NC(=N3)c3cc(Oc4c(COCC#C)cc(C)cc4COCC#C)ccc32)=N1 [Pc4]	1.12 ×10^−4
C#CCOCc1cc(C)cc(COCC#C)c1Oc1cc2c(cc1Oc1c(COCC#C)cc(C)cc1COCC#C)C1=Nc3c4cc(Oc5c(COCC#C)cc(C)cc5COCC#C)c(Oc5c(COCC#C)cc(C)cc5COCC#C)cc4c4[n]3[Zn][n]3c(c5cc(Oc6c(COCC#C)cc(C)cc6COCC#C)c(Oc6c(COCC#C)cc(C)cc6COCC#C)cc5c3=NC3=NC(=N4)c4cc(Oc5c(COCC#C)cc(C)cc5COCC#C)c(Oc5c(COCC#C)cc(C)cc5COCC#C)cc43)=NC2=N1 [Pc2]	1.58 ×10^−4
C#CCOCc1cc(C)cc(COCC#C)c1Oc1nc2c(nc1Oc1c(COCC#C)cc(C)cc1COCC#C)C1=Nc3c4nc(Oc5c(COCC#C)cc(C)cc5COCC#C)c(Oc5c(COCC#C)cc(C)cc5COCC#C)nc4c4[n]3[Zn][n]3c(c5nc(Oc6c(COCC#C)cc(C)cc6COCC#C)c(Oc6c(COCC#C)cc(C)cc6COCC#C)nc5c3=NC3=NC(=N4)c4nc(Oc5c(COCC#C)cc(C)cc5COCC#C)c(Oc5c(COCC#C)cc(C)cc5COCC#C)nc43)=NC2=N1 [AzaPc1]	4.30 ×10^−4
[Zn+2].c1ccc2c(c1)-c1nc-2nc2[n-]c(nc3nc([n-]c4nc(n1)-c1ccccc1-4)-c1ccccc1-3)c1ccccc21 [Std-ZnPc, zinc(II) phthalocyanine, reference compound]	0.23 ×10^−4

Photodegradation quantum yield Φd (×10^−4) in this record for C#CCOCc1cc(C)cc(COCC#C)c1Oc1cc2c(cc1Cl)C1=Nc3c4cc(Oc5c(COCC#C)cc(C)cc5COCC#C)c(Cl)cc4c4[n]3[Zn][n]3c(c5cc(Cl)c(Oc6c(COCC#C)cc(C)cc6COCC#C)cc5c3=NC3=NC(=N4)c4cc(Oc5c(COCC#C)cc(C)cc5COCC#C)c(Cl)cc43)=NC2=N1 [Pc3] : 1.40 ×10^−4
